This collection of values is drawn from patent US8211907B2.

# system tested: NMDA receptor
# test details: [3H] MK-801 binding test on rat brain membrane specimen
Field: pKi. Provide a value for each of the compounds that follow.
Scale note: pKi = -log10(concentration in M).

The reported value for CCOC[C@]12CCCN[C@@]1(C)c1ccccc1C2 in terms of pKi is 5.89

The reported value for c1ccc([C@]23CCCN[C@H]2c2ccccc2C3)cc1 in terms of pKi is 5.92

The reported value for COc1ccc2c(c1)[C@H]1N(C)CCC[C@@]1(C)C2 in terms of pKi is 5.82
